Biological target: T1, POLA2(1-414)-FG3 (human, UniProt Q14181 1-414)
T1 sequence: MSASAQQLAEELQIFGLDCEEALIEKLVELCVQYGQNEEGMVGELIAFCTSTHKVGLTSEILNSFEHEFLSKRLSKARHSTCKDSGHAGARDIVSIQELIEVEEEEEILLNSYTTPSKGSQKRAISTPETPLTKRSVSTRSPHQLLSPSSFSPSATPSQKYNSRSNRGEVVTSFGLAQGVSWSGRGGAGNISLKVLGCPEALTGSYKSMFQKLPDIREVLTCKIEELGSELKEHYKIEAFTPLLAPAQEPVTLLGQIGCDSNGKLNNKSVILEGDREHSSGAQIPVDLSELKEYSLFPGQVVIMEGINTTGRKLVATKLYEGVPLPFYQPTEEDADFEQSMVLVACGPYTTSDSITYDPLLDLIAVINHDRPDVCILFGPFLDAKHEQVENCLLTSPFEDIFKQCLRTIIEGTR
Assay: pull-down
experimental-readout: binding result

[[record]]
binder = "STN1N-Strep D157Y (domain or fragment) MQPGSSRCEEETPSLLWGLDPVFLAFAKLYIRDILDMKESRQVPGVFLYNGHPIKQVDVLGTVIGVRERDAFYSYGVDDSTGVINCICWKKLNTESVSAAPSAARELSLTSQLKKLQETIEQKTKIEIGDTIRVRGSIRTYREEREIHATTYYKVDYPVWNIQIARMLELPTIYRKVYDQPFHSSALEKE"
experimental_readout = "binding result"
experimental_result = "binds"

[[record]]
binder = "STN1N-Strep OBM-2 (W89A/R139A/Y141A) (domain or fragment) MQPGSSRCEEETPSLLWGLDPVFLAFAKLYIRDILDMKESRQVPGVFLYNGHPIKQVDVLGTVIGVRERDAFYSYGVDDSTGVINCICAKKLNTESVSAAPSAARELSLTSQLKKLQETIEQKTKIEIGDTIRVRGSIATAREEREIHATTYYKVDDPVWNIQIARMLELPTIYRKVYDQPFHSSALEKE"
experimental_readout = "binding result"
experimental_result = "binds"

